test-system: EGFR (human) (UniProt P00533)
Sequence (P00533 whole entry, looked up): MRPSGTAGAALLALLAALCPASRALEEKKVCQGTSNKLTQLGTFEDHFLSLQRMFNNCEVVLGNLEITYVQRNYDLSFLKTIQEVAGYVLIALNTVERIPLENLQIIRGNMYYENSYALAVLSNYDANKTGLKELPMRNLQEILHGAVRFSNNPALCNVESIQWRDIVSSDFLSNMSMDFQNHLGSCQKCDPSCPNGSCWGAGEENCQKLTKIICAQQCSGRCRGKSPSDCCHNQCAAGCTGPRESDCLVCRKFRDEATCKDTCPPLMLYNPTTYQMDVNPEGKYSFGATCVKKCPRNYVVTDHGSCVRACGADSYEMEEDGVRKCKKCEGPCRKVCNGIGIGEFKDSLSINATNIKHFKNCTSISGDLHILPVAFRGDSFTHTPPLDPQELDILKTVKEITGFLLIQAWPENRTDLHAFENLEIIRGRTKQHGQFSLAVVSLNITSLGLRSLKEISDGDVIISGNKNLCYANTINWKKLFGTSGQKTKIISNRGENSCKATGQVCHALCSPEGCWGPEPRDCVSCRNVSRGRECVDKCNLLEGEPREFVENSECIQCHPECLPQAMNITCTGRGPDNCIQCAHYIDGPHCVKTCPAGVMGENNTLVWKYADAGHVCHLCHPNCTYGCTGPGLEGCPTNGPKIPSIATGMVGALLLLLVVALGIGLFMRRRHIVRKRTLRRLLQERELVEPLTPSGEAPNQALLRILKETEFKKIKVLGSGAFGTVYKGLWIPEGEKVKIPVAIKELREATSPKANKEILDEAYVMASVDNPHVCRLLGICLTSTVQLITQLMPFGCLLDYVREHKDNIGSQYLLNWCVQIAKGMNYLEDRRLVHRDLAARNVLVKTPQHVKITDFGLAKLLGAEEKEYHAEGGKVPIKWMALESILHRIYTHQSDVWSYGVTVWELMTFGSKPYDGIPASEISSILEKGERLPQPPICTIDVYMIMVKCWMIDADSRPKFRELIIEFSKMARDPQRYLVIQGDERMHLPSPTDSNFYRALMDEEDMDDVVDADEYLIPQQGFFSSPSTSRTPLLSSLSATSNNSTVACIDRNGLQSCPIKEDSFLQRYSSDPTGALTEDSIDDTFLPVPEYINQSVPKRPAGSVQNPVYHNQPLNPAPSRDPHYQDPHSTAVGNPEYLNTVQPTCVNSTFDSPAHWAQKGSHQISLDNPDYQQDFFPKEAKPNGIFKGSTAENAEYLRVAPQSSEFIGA
condition-notes: a431
value-kind: pEC50
Give only the number. pEC50 is defined as minus log10 of concentration in molar units.

The compound identified as CCN(CC)CC1CCN(c2ncc3ncnc(Nc4ccc(F)c(Cl)c4)c3n2)CC1 registered its pEC50 at 6.91

###

test-system: MAPK14 (human)
procedure-summary: TNF-alpha Inhibition (PBMC)
value-kind: pIC50
Give only the number. pIC50 is defined as minus log10 of concentration in molar units.

The compound identified as C[C@H](Nc1nccc(-c2cc(N3CCOCC3)nnc2-c2cccc(C(F)(F)F)c2)n1)c1ccccc1 registered its pIC50 at 6.53

This collection of values is drawn from the Kinase Knowledgebase extract (Sharma et al. 2016).
